These measurements were taken from PubChem BioAssay (NCI).

Reported TGI values follow for various compounds
# System: KM12 colon
# experiment_summary: NCI tumour cell line growth inhibition, 48 h
observed_property: TGI

[[record]]
compound = "COC(=O)C(O)P(=O)(OC)OC (stereo unspecified)"
meas_value = "> 100 µM"

[[record]]
compound = "C[C@]12CC[C@@H]3c4cc(OCC(F)(F)F)c(O)cc4C(=O)C[C@H]3[C@@H]1CC[C@@H]2O"
meas_value = "> 64.4 µM"

[[record]]
compound = "Brc1ccc(-c2nnc(-c3nn(-c4ccccc4)c4nc5ccccc5nc34)o2)cc1"
meas_value = "> 100 µM"

[[record]]
compound = "CCn1cc(/C=C/C(C)c2cn(CC)c(=O)[nH]c2=O)c(=O)[nH]c1=O (stereo unspecified)"
meas_value = "> 100 µM"

[[record]]
compound = "COc1ccc(-c2csc(=Nc3ccccc3)n2CC(O)c2ccc([N+](=O)[O-])cc2)cc1 (stereo unspecified)"
meas_value = "> 100 µM"

[[record]]
compound = "Cc1ccc(C2NC(=S)NC3=C2CCOc2c3ccc3ccccc23)cc1 (stereo unspecified)"
meas_value = "> 100 µM"

[[record]]
compound = "CN(C)c1ccc(/C=C(\\C#N)C(N)=C(C#N)C#N)cc1"
meas_value = "> 100 µM"

[[record]]
compound = "COc1ccc(Nn2c(SCC(=O)Nc3nc(-c4ccc(Cl)cc4)cs3)nc(C)c2C)cc1"
meas_value = "11.1 µM"

[[record]]
compound = "CC1=CC(=O)CCC2(C)C1CC[C@@H]2OC=O (stereo partly specified)"
meas_value = "> 100 µM"

[[record]]
compound = "CS(=O)CCCCCN=C=S (stereo unspecified)"
meas_value = "13 µM"

[[record]]
compound = "NC(N)=NS(=O)(=O)c1ccc(NCc2c3ccccc3nc3ccccc23)cc1"
meas_value = "70.1 µM"


###

Reported GI50 values follow for various compounds
# Test system: RXF 393 renal
# experiment_summary: NCI tumour cell line growth inhibition, 48 h
observed_property: GI50

[[record]]
entry_smiles = "COc1ccccc1-n1c(-c2cc(O)ccc2C)cn2c3c(=O)[nH]c(=O)n(C)c3nc12"
meas_value = "0.872 µM"

[[record]]
entry_smiles = "CN1CCCNc2c(c(=O)c2=O)NCCCN(C)CCCNc2c(c(=O)c2=O)NCCCN(C)CCCNc2c(c(=O)c2=O)NCCCN(C)CCCNc2c(c(=O)c2=O)NCCCN(C)CCCNc2c(c(=O)c2=O)NCCCN(C)CCCNc2c(c(=O)c2=O)NCCCN(C)CCCNc2c(c(=O)c2=O)NCCC1"
meas_value = "2.54 µM"

[[record]]
entry_smiles = "COc1ccc(Nn2c(SCC(=O)Nc3nc(-c4ccc(Cl)cc4)cs3)nc(C)c2C)cc1"
meas_value = "3.53 µM"

[[record]]
entry_smiles = "ClC1=C(Cl)C(Cl)=C(Cl)C1=C/C=C/c1ccccc1"
meas_value = "0.186 µM"


###

# System: ACHN renal
# experiment_summary: NCI tumour cell line growth inhibition, 48 h
Reported TGI values follow for various molecules
observed_property: TGI

[[record]]
molecule = "C[C@]12CC[C@@H]3c4cc(OCC(F)(F)F)c(O)cc4C(=O)C[C@H]3[C@@H]1CC[C@@H]2O"
meas_value = "> 100 µM"

[[record]]
molecule = "COC(=O)c1ccc2c(c1)nc(-c1cc3ccccc3[nH]c1=O)n2-c1cc(C(C)(C)C)[nH]n1"
meas_value = "> 100 µM"

[[record]]
molecule = "COCC1CCCN1c1ccc(/C=C(/C#N)C(N)=S)cc1 (stereo not given)"
meas_value = "> 100 µM"

[[record]]
molecule = "O=c1[nH]c(=O)n(C2CC(O)C(CO)O2)cc1OCCCc1ccccc1 (stereo not given)"
meas_value = "> 100 µM"

[[record]]
molecule = "COC(=O)C(CCCC1(c2ccccc2)OCCO1)C(C)=O (stereo not given)"
meas_value = "> 100 µM"

[[record]]
molecule = "NC(N)=NS(=O)(=O)c1ccc(NCc2c3ccccc3nc3ccccc23)cc1"
meas_value = "30.5 µM"

[[record]]
molecule = "CC(=O)Nc1ccc(Sc2ccc([N+](=O)[O-])o2)cc1"
meas_value = "4.29 µM"

[[record]]
molecule = "Cc1ccc(-c2nc(SCC(=O)O)n[nH]2)cc1"
meas_value = "> 100 µM"

[[record]]
molecule = "COC1(OC)CC2C=C(S(=O)(=O)c3ccccc3)C1N(Cc1ccccc1)C2=O (stereo not given)"
meas_value = "> 100 µM"

[[record]]
molecule = "Clc1ccc(Oc2ccc(N=Cc3ccc(Cl)cc3Cl)cc2Cl)cc1"
meas_value = "> 100 µM"

